Cited source: patent US7105541B2

System: ovariectomized rats
Assay: ovariectomized rat model of postmenopausal hyperlipidemia (serum cholesterol, uterine weight, uterine eosinophil peroxidase)
Assay type: in vivo
Settings: ovariectomized rats, 0.1 mg/kg PO
Counter-ions that a name gives are not always drawn.
property: Uterine Eosinophil (Vmax), eosinophil peroxidase
Answers are plain numbers.

Illustrative cases are given below, each with its answer.
Cl.Oc1cccc(-c2ccc3cc(O)ccc3c2Oc2ccc(OCCN3CCCCC3)cc2)c1 ... 4.8
COc1cccc(-c2ccc3ccccc3c2Oc2ccc(OCCN3CCCCC3)cc2)c1.Cl ... 4.5
O=C(c1ccc(OCCN2CCCCC2)cc1)c1c(-c2ccc(O)cc2)sc2cc(O)ccc12 [Raloxifene, hydrochloride, reference compound] ... 5.4

Proceed to the following item.
Using the record for "COc1cccc(-c2ccc3cc(OC)ccc3c2Oc2ccc(OCCN3CCCCC3)cc2)c1.Cl" , report its Uterine Eosinophil (Vmax), eosinophil peroxidase. 4.8
